B1: glmS ribozyme (parent)
chain: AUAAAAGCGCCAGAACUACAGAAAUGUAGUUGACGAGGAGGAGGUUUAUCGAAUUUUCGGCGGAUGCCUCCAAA

variants of: B1; test: self-cleavage kobs at 10000 uM GlcN6P; higher = faster cleavage; RNA array; conditions: with glucosamine-6-phosphate
Variants at the floor of the assay were thinned out.
self-cleavage kobs at 10000 uM GlcN6P below 0.0003 s⁻¹ gives N; self-cleavage kobs at 10000 uM GlcN6P at or above it gives Y.

• AUAAAAGCGCCAGCACUACAGAAAUGUAGUUGACGAGGAGGAGGUUUAUCGAAUUUUCGGCGGAUUCCUCCAAA = N
• AUAAAAGCGCCAGAACUACAGAAAUGUAGUUGACGAGGAGGUGGUUUAUCGAAUUUUCGGCGGAAGCCUCCAAA = N
• AUAAAAGCGCCAGAACUACAGAAAUGUAGUUGACGAGGUGGAGGAUUAUCGAAUUUUCGGCGGAUGCCUCCAAA = Y
• AUAAAAGCGCCAGAACUACAGAAAUGUAGUUGACGAGGAGGAGGUUUAUCGAAUUUUCGUCGGAUCCCUCCAAA = N
• AUAAAAGCGCCAGAACUACAGAAAUGUAGUUGACGAGGAAAAGGUUUAUCGAAUUUUCGGCGGAUGCCUCCAAA = N
• AUAAACGCGCCAGAACUACAGAAAUGUAGGUGACUAGGAGGAGGUUUAUCGAAUUUUCGGCGGAUGCCUCCAAA = N
• AUAAAAGCGCCAGAAGUACAGAAAUGUAGUAGACCAGGAAGAGGUUUAUCGAAUUUUCGGCGGAUGCCUCCAAA = N
• AUAAAAGCGCCAGAACUACAGAAAUGUAGUAGACGAGGAGGUGGUUUAUCGAAUUUUCGGCGGAUGCCUCCAAA = N
• AUAAAAGCGCCAGAAUUACAGAAAUGUAGUUGACGAGCAGGAGGUUUGUUGAAUGUUCGGCGGAUGCCUCCAAA = N
• AUAAAAGCGCCAGAACUACAGAAAUGUAGUUGACGAGGAAGAGGUUCAUCGAAUUUUCGGCAGCUGCCUUCAAA = N
• AUAAAAGCGCCAGAACUACAGAAAUGUAGUUGACCAGGAGGAGGUUUAUCGAAUUUUCGGCGGAUCCCUCCAAA = N
• AUAAAAGCGCCAGAAUUACAGAAAUGUAGUUGACGAGGAGGAGGUUUAUCGAAUUUUCGGCGGAUGCCUCUAAA = Y
• AUAAAAGCGCCUGAACUACAGAAAUGUAGUUGACGAGGAGGAGGUUUGUCGAAUUUUCGGCGGAUGCCUCCAAA = N
• AUAAAAGUGCCAGAACUACAGAAAUGUAGUUCCCGAGGACGAGGUUUAUCGAAUUUUCGGCGGAUGCCUCCAAA = N
• AUAAAAGCGCCAGAACUACAGAAAUGUAGUUGACGAGGAGGAGGUUUAUCGAAUUGUCGGCUUAUGCCUCCAAA = N
• AUAAAAGCGCCAUAAUUACAGAAAUGUAGUUGACGAGGAGGAGGUUUAUCGAUUUUUCGGCUGAUGCCUCCAAA = N
• AUAAAAGCGCCAGAACUACAGAAAUGUAGUUGACGUGGAGGUGGUUUAUCGAAUUUUCGGUGGAUGCCUCCAAA = N
• AUAAAAGCGCCAGAACUACAGAAAUGUAAUUGACGAGGAGGAGGUUUAUCGAAAUUUCGGCGGAUGCCUCCAAA = Y
• AUAAAAGCGCCAGAACUACAGAAAUGUAGUUGACGAGGAGGAGGUUUAUCGAUAUUUCGGCGGAUGCUUCCAAA = Y
• AUAAAAGAGCCAGAACUACAGAAAUGUAGUUGACGAGGAGGAGGAUUAUCGGAUUUUCGGGGGAUGUCUCCAAA = N
• AUAAAAGCGCCAGAACUACAGAAAUGUAGUUGACGAAGGGGAGGUUUAUCGAAGAUUCGGCGGAUGCCUCCAAA = Y
• AUAAAAGCGCCAGAACUACAGAAAUGUAGUUGACGAGGAGGAUGUUUAUCGAAUUUUGGGCGGAUGCCUCCAAA = N
• AUAAAAGCGCCAGAACUACAGAAAUGUAGUUGACGAGGAGGAGGUUUAUCAAAUUUUCGGCCGAUGACUCCAAA = N
• AUAAAAGCGUCAGAAUUACAGAAAUGUAGUUGACGAUAGGGAGGUUUAUGGAAUUUUCGGCGGGCGCCUCCAAA = Y
• AUAAAAGCGCCAGCACUACAGAAAUGUAGUUGACGAGGAGGAGGUUUAUGGAAUUUUCGGCGGAUGCAUCCAAA = N
• AUAAAUGCGCCAGAACUACAGAAAUGUAGAUGACGAGGAGGAGGUUUAUCGAAUUUUCGGCGGAUGCCUCCAAA = N
• AUAAAAGCGCCGGAACUACAGAAAUGUAGUUGACGAGGAGGAGGUUUAUCGAAUUUUAGGCGGAUGCCUCCAAA = Y
• AUAAAAGGGCCAGAACUACAGAAAUGUAGUUGAAGAGGAGGAGGUUUAUCGAAUUUUCGGCGGAUCCCUCCAAA = N
• AUAAAAGCGCCAGAACUACAGAAAUGUAGUUGACGAGGAGGAGGUUUAUCGUAUUUUCGGCGGGUGCCUCCAAA = N
• AUAAAAGCGCCAGAACUACAGAAAUGUAGUUUACGAGGAGGUGGUUUAUCGAAUUUUUGGCGGAUGCCUCCAAA = N
• AUAAAAGCGCCAGAACUACAGAAAUGUAGUUGACGUGGAGGAGGUUGAUCGAAUUUUCGGCGGAUGCCUGCAAA = N
• AUAAAAGCGCCAGAUCUACAGAAAUGUAGUUGACGAGUAGGAGGUUUAUCGAAUUUCCGGUGGAUGCCUCCAAA = N
• AUAAAAGCGCCAGAACUACAGAAAUGUAUUUGACCAGGAGGACGUUUAUCGAAUUUUCAGCGGAUGCCUCCAAA = N
• AUAAAAGCGCCAGAACUACAGAAAUGUAGUUGACGUGGAGGAGGUUUUUCGAAUUUUCGGCGGAUGCCUCCAAA = N
• AUAAAACCGCCAGAGCUACAGAAAUGUAGUUGACGUGGAGGAGGUUUAUCGAAUUUUCGGCGGAUGCCUCCAAA = N
• AUAAAAGCGCCAGAACUACAGAAAUGUAGUUGGCGAGGAUGAGGUUUACCGAAUUUUCGGCGGAUGCCUCCAAA = N
• AUAAAAGCGCCAGAACUACAGAAAUGUACUUGACGAGGAGGAGGUUAAUCGAAUUUUCGGCGGAUGCCUCCAAA = Y
• AUAAAAGCGCCAGAACUACAGAAAUGUAGUUGACGAGGAUGAGGUUUAUCGAAUAUUCGGCGGAUGCCUCCAAA = Y
• AUAAAAGCGCCAGAACUACAGAAAUGUAGUUGACAAGGAGGAGGUUUAUGGAAUUUUCGGCGGAUGCCUCUAAA = N
• AUAAAAGCGCCAGAACUACAGAAAUGUAGUUGGCGAGGAGGAGGUUUAUCGAAUUUUCGGCGGCUGCCUCCAAA = N
• AUAAAAUCGCCAGAACUACAGAAAUGUAGUUGACGAGGAUGAGGUUUAUCGAAUUUUCGGCGGAUGCCUCCAAA = N
• AUAAAAGCGACAGAACUACAGAAAUGUAGAUGACGAGGAGGAGGUUUAUCGAAUUUUCGGCGGAUGCCUCCAAA = N
• AUAAAGGCGCCCGAACUACAGAAAUGUAGUUGACGAGGAGGAGGGUUAUCGAAUUUUUCGCAGAUGCGUCCAAA = N
• AUAAAAGCGCCAGAACUACAGAAAUGUAGUCGACGAGGAGGAGGUUUAUCGAAUUUUCGGCGGAUGUCUCCAAA = Y
• AUAAAAGCGCCAGAACUACAGAAAUGUAGCUGAAGAGGAGGAGGUUUAUCGAAUUUUCGGCGGAUGCCUCCAAA = N
